- Study System: Induced myeloid leukemia cell differentiation protein Mcl-1 (Homo sapiens)
- Sequence (Q07820 whole entry): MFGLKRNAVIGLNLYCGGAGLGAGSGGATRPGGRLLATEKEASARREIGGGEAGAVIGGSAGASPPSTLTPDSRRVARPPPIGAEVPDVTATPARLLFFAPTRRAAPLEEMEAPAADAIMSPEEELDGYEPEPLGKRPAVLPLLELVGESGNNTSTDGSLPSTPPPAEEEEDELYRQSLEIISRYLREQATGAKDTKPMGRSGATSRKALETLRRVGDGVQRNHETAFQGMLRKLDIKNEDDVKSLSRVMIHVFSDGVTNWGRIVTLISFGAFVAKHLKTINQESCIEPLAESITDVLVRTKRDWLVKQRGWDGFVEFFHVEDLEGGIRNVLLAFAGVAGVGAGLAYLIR
- Measurement Notes: Binding affinity to human Mcl1 incubated for 2 hrs by FBid based competitive FP assay
Positions of bridges follow the written chain, without caps; N, C: chain ends. Non-standard residues stand in square brackets, D forms with d. Residues, ends and D or L forms follow the SMILES beside them. ξ: configuration not given here. *: point of attachment. S5 = C=CCCC[C@](C)(N)C(=O)O; Acryloyl = C=CC(=O)*; ξDap = NCC(N)C(=O)O
Result Type: IC50 (nM)
Write the number in nM without appending the unit.

The value of IC50 measured for the compound C=CC(=O)NCC1NC(=O)[C@@](C)(NC(C)=O)CCC/C=C/CCC[C@@](C)(C(=O)N[C@@H](CCC(=O)O)C(=O)N[C@@H](CC(C)C)C(=O)N[C@@H](CCCNC(=N)N)C(=O)N[C@@]2(C)CCC/C=C/CCC[C@@](C)(C(=O)N[C@@H](Cc3ccccc3)C(N)=O)NC(=O)[C@H](CC(=O)O)NC(=O)CNC(=O)[C@H]([C@@H](C)CC)NC2=O)NC(=O)[C@H](C)NC(=O)[C@H]([C@@H](C)CC)NC1=O (stereo not given in full) (Ac-[S5][ξDap](Acryloyl)IA[S5]ELR[S5]IGD[S5]F-NH2; staple (E) 1-5, 9-13) turned out to be 51.6

The value of IC50 measured for the compound C=CC(=O)NCC1NC(=O)[C@@H](NC(C)=O)CCCCNC(=O)C[C@@H](C(=O)N[C@@H](CCC(=O)O)C(=O)N[C@@H](CC(C)C)C(=O)N[C@@H](CCCNC(=N)N)C(=O)N[C@@]2(C)CCC/C=C/CCC[C@@](C)(C(=O)N[C@@H](Cc3ccccc3)C(N)=O)NC(=O)[C@H](CC(=O)O)NC(=O)CNC(=O)[C@H]([C@@H](C)CC)NC2=O)NC(=O)[C@H](C)NC(=O)[C@H]([C@@H](C)CC)NC1=O (stereo not given in full) (Ac-K[ξDap](Acryloyl)IADELR[S5]IGD[S5]F-NH2; lactam 1-5; staple (E) 9-13) turned out to be 108

The value of IC50 measured for the compound C=CC(=O)NCC1NC(=O)[C@@H](NC(C)=O)CCCCNC(=O)C[C@@H](C(=O)N[C@@H](CCC(=O)O)C(=O)N[C@@H](CC(C)C)C(=O)N[C@@H](CCCNC(=N)N)C(=O)N[C@H]2CCCCNC(=O)C[C@@H](C(=O)N[C@@H](Cc3ccccc3)C(N)=O)NC(=O)[C@H](CC(=O)O)NC(=O)CNC(=O)[C@H]([C@@H](C)CC)NC2=O)NC(=O)[C@H](C)NC(=O)[C@H]([C@@H](C)CC)NC1=O (stereo not given in full) (Ac-K[ξDap](Acryloyl)IADELRKIGDDF-NH2; lactam 1-5, 9-13) turned out to be 48

The value of IC50 measured for the compound C=CC(=O)NCC(NC(=O)[C@@H](NC(C)=O)[C@@H](C)CC)C(=O)N[C@H](C(=O)N[C@@H](C)C(=O)N[C@@H](CCC(N)=O)C(=O)N[C@@H](CCC(=O)O)C(=O)N[C@@H](CC(C)C)C(=O)N[C@@H](CCCNC(=N)N)C(=O)N[C@@]1(C)CCC/C=C/CCC[C@@](C)(C(=O)N[C@@H](Cc2ccccc2)C(N)=O)NC(=O)[C@H](CC(=O)O)NC(=O)CNC(=O)[C@H]([C@@H](C)CC)NC1=O)[C@@H](C)CC (stereo not given in full) (Ac-I[ξDap](Acryloyl)IAQELR[S5]IGD[S5]F-NH2; staple (E) 9-13) turned out to be 162

The value of IC50 measured for the compound C=CC(=O)NCC1NC(=O)[C@@](C)(NC(C)=O)CCC/C=C/CCC[C@@](C)(C(=O)N[C@@H](CCC(=O)O)C(=O)N[C@@H](CC(C)C)C(=O)N[C@@H](CCCNC(=N)N)C(=O)N[C@H]2CCCCNC(=O)C[C@@H](C(=O)N[C@@H](Cc3ccccc3)C(N)=O)NC(=O)[C@H](CC(=O)O)NC(=O)CNC(=O)[C@H]([C@@H](C)CC)NC2=O)NC(=O)[C@H](C)NC(=O)[C@H]([C@@H](C)CC)NC1=O (stereo not given in full) (Ac-[S5][ξDap](Acryloyl)IA[S5]ELRKIGDDF-NH2; staple (E) 1-5; lactam 9-13) turned out to be 29.2
